Just for reference, patent US20250099475A1 is where these values come from.

assay: Phase 1 part 1 single ascending dose: pharmacokinetics; type: in vivo, human; details: male, human, plasma, oral; single doses 5 to 800 mg; read-out: mean t1/2 values
observation-type: half-life

# input Tell me the measured half-life of "CC(=O)N[C@H]1CC[C@H](NC(=O)CN2CCN(c3nncc(-c4ccc(C)cc4)n3)CC2)CC1" , please.
# output 7.92 to 10.5 h
